- target_of_assay: Peptidyl-prolyl cis-trans isomerase NIMA-interacting 1 (Homo sapiens)
- assay_comment: Inhibition of N-terminal His tagged human Pin1 expressed in Escherichia coli BL21 (DE3) using Suc-Ala-Glu-Pro-Phe-4-nitroanilide as substrate preincubated with enzyme for 10 mins followed by substrate addition by UV-Vis spectrophotometer analysis
reported_endpoint: pKi
Schema: pKi number; meaning minus log10 of the concentration expressed in molar units.

Request the reported pKi associated with O=C(N[C@H](C/C=C/c1cccc(F)c1)C(=O)O)c1ccc2ccccc2c1 8.22

---

- target_of_assay: Peptidyl-prolyl cis-trans isomerase NIMA-interacting 1 (Homo sapiens, UniProt Q13526)
- Sequence (Q13526 whole entry): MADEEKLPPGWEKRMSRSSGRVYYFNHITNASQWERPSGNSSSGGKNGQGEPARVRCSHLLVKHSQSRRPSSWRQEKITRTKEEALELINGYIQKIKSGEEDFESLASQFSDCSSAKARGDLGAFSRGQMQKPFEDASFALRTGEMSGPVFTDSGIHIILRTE
- assay_comment: Inhibition of N-terminal His tagged human Pin1 expressed in Escherichia coli BL21 (DE3) using Suc-Ala-Glu-Pro-Phe-4-nitroanilide as substrate preincubated with enzyme for 10 mins followed by substrate addition by UV-Vis spectrophotometer analysis
Below, each entry is listed alongside its reported pIC50.
Schema: pIC50 number; meaning minus log10 of the concentration expressed in molar units.

These solved cases illustrate the format of a correct answer.
O=C(O)CNc1nc(N2CCNCC2)sc1C(=O)Nc1ccc2ccccc2c1
4.33
CO[C@@H]1CCCN(c2nc(NCC(=O)O)c(C(=O)Nc3ccc4ccccc4c3)s2)C1
5.04
CC1CN(c2nc(NCC(=O)O)c(C(=O)Nc3ccc4ccccc4c3)s2)CCN1 (stereo not given)
5.18
O=C(O)CNc1nc(N2CC[C@H](O)C2)sc1C(=O)Nc1ccc2ccccc2c1
5.07
CC(C)c1cccc(NC(=O)c2sc(N3CC4(COC4)C3)nc2NCC(=O)O)c1
4.77

Now for the compound whose pIC50 we want.
Request the reported pIC50 associated with CO[C@H]1CCCN(c2nc(NCC(=O)O)c(C(=O)Nc3ccc4ccccc4c3)s2)C1 5.07

---

- target_of_assay: Peptidyl-prolyl cis-trans isomerase NIMA-interacting 1 (Homo sapiens, UniProt Q13526)
- assay_comment: Inhibition of human recombinant Pin1 using Suc-AEPF-NH-Np as substrate by alpha-chymotrypsin based assay
reported_endpoint: IC50 (µM)
Please give a number only; it is taken to be in µM.

Request the reported IC50 associated with O=C1C=CC(=O)c2ccccc21 5

---

- target_of_assay: Peptidyl-prolyl cis-trans isomerase NIMA-interacting 1 (Homo sapiens, UniProt Q13526)
- assay_comment: Inhibition of N-terminal His tagged human Pin1 expressed in Escherichia coli BL21 (DE3) using Suc-Ala-Glu-Pro-Phe-4-nitroanilide as substrate preincubated with enzyme for 10 mins followed by substrate addition by UV-Vis spectrophotometer analysis
pIC50: −log10 of the molar value.
// label = Criterion met if pIC50 is not less than 5, otherwise Criterion not met

Take a look at these entries with their results.
O=C(O)CNc1nc(N2CC3(COC3)C2)sc1C(=O)Nc1ccc2ccccc2c1
Criterion met
O=C(O)CNc1nc(N2CC3(CCC3)C2)sc1C(=O)Nc1ccc2ccccc2c1
Criterion met

Moving on to another compound below.
Is it the case that O=C(O)CNc1nc(N2CCC(C(F)(F)F)CC2)sc1C(=O)Nc1ccc2ccccc2c1 has pIC50 reaching or exceeding 5? Criterion not met

---

- target_of_assay: Peptidyl-prolyl cis-trans isomerase NIMA-interacting 1 (Homo sapiens, UniProt Q13526)
- assay_comment: Inhibition of N-terminal His tagged human Pin1 expressed in Escherichia coli BL21 (DE3) using Suc-Ala-Glu-Pro-Phe-4-nitroanilide as substrate preincubated with enzyme for 10 mins followed by substrate addition by UV-Vis spectrophotometer analysis
Below, each entry is listed alongside its reported pIC50.
Schema: pIC50 number; meaning minus log10 of the concentration expressed in molar units.

These solved cases illustrate the format of a correct answer.
O=C(O)CNc1nc(N2C3CCC2CC(O)C3)sc1C(=O)Nc1ccc2ccccc2c1 (stereo unspecified)
5.13
COC1CCCN(c2nc(NCC(=O)O)c(C(=O)Nc3ccc4ccccc4c3)s2)C1 (stereo unspecified)
5.06
O=C(O)CNc1nc(N2CCC(O)CC2)sc1C(=O)Nc1ccc2ccccc2c1
5.52

Request the reported pIC50 associated with COC1CCN(c2nc(NCC(=O)O)c(C(=O)Nc3ccc4ccccc4c3)s2)C1 (stereo unspecified) 5.15

---

- target_of_assay: Peptidyl-prolyl cis-trans isomerase NIMA-interacting 1 (Homo sapiens)
- assay_comment: Inhibition of N-terminal His tagged human Pin1 expressed in Escherichia coli BL21 (DE3) using Suc-Ala-Glu-Pro-Phe-4-nitroanilide as substrate preincubated with enzyme for 10 mins followed by substrate addition by UV-Vis spectrophotometer analysis
Below, each entry is listed alongside its reported pIC50.
Schema: pIC50 number; meaning minus log10 of the concentration expressed in molar units.

These solved cases illustrate the format of a correct answer.
CC1CN(c2nc(NCC(=O)O)c(C(=O)Nc3ccc4ccccc4c3)s2)CCN1C (configuration not stated)
4.43
CCO[C@H]1CCN(c2nc(NCC(=O)O)c(C(=O)Nc3ccc4ccccc4c3)s2)C1
5.28
CCO[C@@H]1CCN(c2nc(NCC(=O)O)c(C(=O)Nc3ccc4ccccc4c3)s2)C1
4.63

Now for the molecule whose pIC50 we want.
Request the reported pIC50 associated with O=C(O)CNc1nc(N2CCCC(O)C2)sc1C(=O)Nc1ccc2ccccc2c1 (configuration not stated) 5.29

---

- target_of_assay: Peptidyl-prolyl cis-trans isomerase NIMA-interacting 1 (Homo sapiens, UniProt Q13526)
- assay_comment: Inhibition of N-terminal His tagged human Pin1 expressed in Escherichia coli BL21 (DE3) using Suc-Ala-Glu-Pro-Phe-4-nitroanilide as substrate preincubated with enzyme for 10 mins followed by substrate addition by UV-Vis spectrophotometer analysis
reported_endpoint: pIC50
Schema: pIC50 number; meaning minus log10 of the concentration expressed in molar units.

O=C(O)CNc1nc(N2CC=CCC2)sc1C(=O)Nc1ccc2ccccc2c1
5.33
CC1(O)CCN(c2nc(NCC(=O)O)c(C(=O)Nc3ccc4ccccc4c3)s2)CC1
5.42

Request the reported pIC50 associated with O=C(O)CNc1nc(N2CC[C@H](F)C2)sc1C(=O)Nc1ccc2ccccc2c1 5.00

# repeat for O=C(O)CNc1nc(N2CCC3(C2)OCCO3)sc1C(=O)Nc1ccc2ccccc2c1 4.89

# repeat for COC1CCN(c2nc(NCC(=O)O)c(C(=O)Nc3ccc4ccccc4c3)s2)CC1 4.79

# repeat for CC1CCN(c2nc(NCC(=O)O)c(C(=O)Nc3ccc4ccccc4c3)s2)CC1 5.12

# repeat for O=C(O)CNc1nc(N2CC3(COC3)C2)sc1C(=O)Nc1ccc(Cl)c(Cl)c1 4.55

---

- target_of_assay: Peptidyl-prolyl cis-trans isomerase NIMA-interacting 1 (Homo sapiens, UniProt Q13526)
- assay_comment: Inhibition of N-terminal His tagged human Pin1 expressed in Escherichia coli BL21 (DE3) using Suc-Ala-Glu-Pro-Phe-4-nitroanilide as substrate preincubated with enzyme for 10 mins followed by substrate addition by UV-Vis spectrophotometer analysis
Below, each entry is listed alongside its reported IC50.
Please give a number only; it is taken to be in µM.

These solved cases illustrate the format of a correct answer.
CO[C@H]1CCN(c2nc(NCC(=O)O)c(C(=O)Nc3ccc4ccccc4c3)s2)C1
28.5
O=C(N[C@H](C/C=C/c1cccc(F)c1)C(=O)O)c1ccc2ccccc2c1
0.09
O=C(O)CNc1nc(N2CCCCCCC2)sc1C(=O)Nc1ccc2ccccc2c1
13.7
O=C(O)CNc1nc(N2CCCC2)sc1C(=O)Nc1ccc2ccccc2c1
16.6
O=C(O)CNc1nc(N2CCCC3(C2)OCCO3)sc1C(=O)Nc1ccc2ccccc2c1
6.78

Request the reported IC50 associated with O=C(O)CNc1nc(N2CC3(COC3)C2)sc1C(=O)Nc1ccc(-c2ccccc2)cc1 13.3

# repeat for CO[C@@H]1CCN(c2nc(NCC(=O)O)c(C(=O)Nc3ccc4ccccc4c3)s2)C1 5.04

# repeat for O=C(O)CNc1nc(N2CCNC(=O)C2)sc1C(=O)Nc1ccc2ccccc2c1 11.4

# repeat for CC1(C)CCN(c2nc(NCC(=O)O)c(C(=O)Nc3ccc4ccccc4c3)s2)CC1 3.63

# repeat for O=C(O)CNc1nc(N2CCSCC2)sc1C(=O)Nc1ccc2ccccc2c1 9.32

# repeat for O=C(O)CNc1nc(N2CCOCC2)sc1C(=O)Nc1ccc2ccccc2c1 17.7
